study.target: T1, human IL-17A (human, UniProt Q16552 24-155)
T1 construct: Recombinant; biotinylated in the ELISA; also called hIL-17; hIL17A
T1 sequence (Q16552 24-155): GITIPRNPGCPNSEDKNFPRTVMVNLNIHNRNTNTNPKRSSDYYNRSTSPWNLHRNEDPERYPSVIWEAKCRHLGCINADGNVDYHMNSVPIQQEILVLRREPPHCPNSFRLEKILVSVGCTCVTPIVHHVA
assay.overview: SPR (Biacore 3000), antibody captured by anti-Fc, antigen in solution;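 note: purified recombinant IL-17 antigens flowed over captured antibodies in HBS-EP buffer, global Langmuir one-to-one fit of association and dissociation phases, KD derived from koff over kon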
Recorded kon values for a group of binders are listed next.
I only need the number, in M⁻¹ s⁻¹, no unit after it.

Check out these entries, answers already filled in.
Determine from records and report kon for IL17-h5C5.15 (antibody, V domains shown, IgG; constant regions not specified; also called h5C5.15 (VH.1b-Vk.3a)) VH: EVQLVQSGAEVKKPGASVKVSCKASGYTFTDYEFHWVRQAPGQGLEWIGVIHPGNGGTAYNQNFRDRATLTADKSTSTAYMELSSLRSEDTAVYYCTRFLTYEGYFDYWGQGTLVTVSS VL: EIVMTQSPATLSVSPGERATLSCKASQSVSIDVGWFQQKPGQSPRLLIYHASNRYTGVPARFSGSGSGTDFTLTISSLQPEDFAVYFCQQDYSSPYTFGQGTKLEIKR
954000

Determine from records and report kon for IL17-h10F7.6 (antibody, V domains shown, IgG; constant regions not specified; also called h10F7.6 (VH.1a-Vk.1a)) VH: EVQLVQSGAEVKKPGSSVKVSCKASGYTFTDYEIHWVRQAPGQGLEWIGVNDPESGGTFYNQKFDGRATLTADKSTSTAYMELSSLRSEDTAVYYCTRYYRYESFYGMDYWGQGTTVTVSS VL: DIQLTQSPSSLSASVGDRVTITCSASSSISYIYWFQQKPGKSPKRWIYATFELASGVPSRFSGSGSGTDYTLTISSLQPEDFATYYCHQRSSYPWTFGQGTKLEIKR
612000

Please find the next binder below.
Determine from records and report kon for IL17-h5C5.21 (antibody, V domains shown, IgG; constant regions not specified; also called h5C5.21 (VH.1b-Vk.3c)) VH: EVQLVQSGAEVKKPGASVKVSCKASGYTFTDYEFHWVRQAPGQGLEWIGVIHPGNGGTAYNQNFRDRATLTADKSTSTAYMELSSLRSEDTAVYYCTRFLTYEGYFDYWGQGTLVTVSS VL: NIVMTQSPATLSVSPGERATLSCKASQSVSIDVGWFQQKPGQSPRLLIYHASNRYTGVPARFSGSGSGTDFTLTISSLQPEDFAVYFCQQDYSSPYTFGQGTKLEIKR
542000
